# System: NCI-H1975
# Test Protocol: Antiproliferative activity against human NCI-H1975 cells assessed as inhibition of cell growth incubated for 48 hrs in presence of celastrol by MTT assay
# Type: functional, cell-based
# Protocol Conditions: NCI-H1975, 48 h
Measure Name: IC50 (µM)
Numeric answer only, unit µM assumed.

Would you mind telling me what IC50 value was observed for Cc1nc(C)c(C)nc1C [LIGUSTRAZINE] ?
5.61

----------
# Experimental System: Peroxiredoxin-1 (Homo sapiens)
# Test Protocol: Inhibition of PRDX1 (unknown origin) in presence of cofactor A/cofactor B/NADPH incubated for 25 mins
# Protocol Conditions: read-out: IC50
Measure Name: pIC50
Entry type: numeric. Quantity: pIC50, the -log10 of concentration in molar units.

Study these solved cases before continuing.
[[record]]
chem_smiles = "CC1=C(O)C(=O)C=C2C1=CC=C1[C@@]2(C)CC[C@@]2(C)[C@@H]3C[C@](C)(C(=O)OCc4nc(C)c(C)nc4C)CC[C@]3(C)CC[C@]12C"
numeric_value = 5.60

[[record]]
chem_smiles = "CC1=C(OC(=O)/C=C/c2ccccc2)C(=O)C=C2C1=CC=C1[C@@]2(C)CC[C@@]2(C)[C@@H]3C[C@](C)(C(=O)NCc4nc(C)c(C)nc4C)CC[C@]3(C)CC[C@]12C"
numeric_value = 6.79


Next compound, pIC50 to be filled in.
Would you mind telling me what pIC50 value was observed for CC1=C(O)C(=O)C=C2C1=CC=C1[C@@]2(C)CC[C@@]2(C)[C@@H]3C[C@](C)(C(=O)NCc4nc(C)c(C)nc4C)CC[C@]3(C)CC[C@]12C ?
6.78

----------
# Experimental System: Peroxiredoxin-1 (Homo sapiens, UniProt Q06830)
# Sequence (Q06830 whole entry): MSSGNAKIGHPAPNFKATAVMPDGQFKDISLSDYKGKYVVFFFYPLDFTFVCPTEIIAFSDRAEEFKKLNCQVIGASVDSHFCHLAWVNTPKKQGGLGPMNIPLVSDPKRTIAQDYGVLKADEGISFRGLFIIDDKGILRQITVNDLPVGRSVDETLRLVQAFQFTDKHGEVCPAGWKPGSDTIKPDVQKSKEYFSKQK
# Test Protocol: Inhibition of PRDX1 (unknown origin) in presence of cofactor A/cofactor B/NADPH incubated for 25 mins
# Protocol Conditions: read-out: IC50
Measure Name: IC50

[[record]]
chem_smiles = "[O-][n+]1c(CBr)c(CBr)[n+]([O-])c2ccccc21"
experimental_system = "Peroxiredoxin-1 (Homo sapiens, UniProt Q06830)"
result = "14800 nM"

[[record]]
chem_smiles = "CC1=C(OC(=O)C2CC2)C(=O)C=C2C1=CC=C1[C@@]2(C)CC[C@@]2(C)[C@@H]3C[C@](C)(C(=O)NCc4nc(C)c(C)nc4C)CC[C@]3(C)CC[C@]12C"
experimental_system = "Peroxiredoxin-1 (Homo sapiens, UniProt Q06830)"
result = "239 nM"


Next compound, IC50 to be filled in.
Param readout= IC50; system= Peroxiredoxin-1 (Homo sapiens, UniProt Q06830); entry= CC(=O)OC1=C(C)C2=CC=C3[C@@](C)(CC[C@@]4(C)[C@@H]5C[C@](C)(C(=O)NCc6nc(C)c(C)nc6C)CC[C@]5(C)CC[C@]34C)C2=CC1=O ; returns value.
1470 nM

----------
# System: SK-HEP1
# Test Protocol: Antiproliferative activity against human SK-HEP1 cells assessed as inhibition of cell growth incubated for 48 hrs in presence of celastrol by MTT assay
# Assay type: functional, cell-based
# Protocol Conditions: SK-HEP1, 48 h
Measure Name: pIC50
Entry type: numeric. Quantity: pIC50, the -log10 of concentration in molar units.

Would you mind telling me what pIC50 value was observed for Cc1nc(C)c(C)nc1C [LIGUSTRAZINE] ?
5.01

----------
# System: MDA-MB-231
# Test Protocol: cells
# Protocol Conditions: Homo sapiens, MDA-MB-231, 48 h
# Description: Antiproliferative activity against human MDA-MB-231 cells assessed as inhibition of cell growth incubated for 48 hrs in presence of ligustrazine by MTT assay
Measure Name: IC50 (µM)
Numeric answer only, unit µM assumed.

Param readout= IC50; system= MDA-MB-231; entry= CC1=C(O)C(=O)C=C2C1=CC=C1[C@@]2(C)CC[C@@]2(C)[C@@H]3C[C@](C)(C(=O)O)CC[C@]3(C)CC[C@]12C ; returns value.
4.86

----------
Items are presented alongside their recorded pIC50.
# Experimental System: Peroxiredoxin-1 (Homo sapiens, UniProt Q06830)
# Test Protocol: Inhibition of PRDX1 (unknown origin) in presence of cofactor A/cofactor B/NADPH incubated for 25 mins
# Protocol Conditions: read-out: IC50
Entry type: numeric. Quantity: pIC50, the -log10 of concentration in molar units.

[[record]]
chem_smiles = "CC1=C(OC(=O)C2CCOCC2)C(=O)C=C2C1=CC=C1[C@@]2(C)CC[C@@]2(C)[C@@H]3C[C@](C)(C(=O)NCc4nc(C)c(C)nc4C)CC[C@]3(C)CC[C@]12C"
numeric_value = 5.81

[[record]]
chem_smiles = "CCC(=O)OC1=C(C)C2=CC=C3[C@@](C)(CC[C@@]4(C)[C@@H]5C[C@](C)(C(=O)NCc6nc(C)c(C)nc6C)CC[C@]5(C)CC[C@]34C)C2=CC1=O"
numeric_value = 6.01

[[record]]
chem_smiles = "CCCC(=O)OC1=C(C)C2=CC=C3[C@@](C)(CC[C@@]4(C)[C@@H]5C[C@](C)(C(=O)NCc6nc(C)c(C)nc6C)CC[C@]5(C)CC[C@]34C)C2=CC1=O"
numeric_value = 6.55

[[record]]
chem_smiles = "CC1=C(OC(=O)/C=C/c2ccccc2)C(=O)C=C2C1=CC=C1[C@@]2(C)CC[C@@]2(C)[C@@H]3C[C@](C)(C(=O)OCc4nc(C)c(C)nc4C)CC[C@]3(C)CC[C@]12C"
numeric_value = 6.28


Next compound, pIC50 to be filled in.
Would you mind telling me what pIC50 value was observed for CC(=O)OC1=C(C)C2=CC=C3[C@@](C)(CC[C@@]4(C)[C@@H]5C[C@](C)(C(=O)OCc6nc(C)c(C)nc6C)CC[C@]5(C)CC[C@]34C)C2=CC1=O ?
6.32

----------
# Tested on: A549
# Test Protocol: Antiproliferative activity against human A549 cells assessed as inhibition of cell growth incubated for 48 hrs in presence of celastrol by MTT assay
# Format: functional, cell-based
# Protocol Conditions: A549, 48 h
Measure Name: IC50
Quick note: unit goes after the number.

Would you mind telling me what IC50 value was observed for Cc1nc(C)c(C)nc1C ?
6.42 µM
